Target: Gal(b1-4)GlcNAc(b1-3)Gal(b1-3)GlcNAc
Assay: glycan array binding signal (z-score within array); higher = stronger binding
Conditions: glycan notation: IUPAC condensed, linker removed
Only a selection was taken, and the strongest signals are over-represented in it overall.
Values of glycan array binding signal (z-score) greater than or equal to -0.5 map to MET; values below map to NOT MET.

>>> category("Cohesin-hMARCO (Homo sapiens) (protein) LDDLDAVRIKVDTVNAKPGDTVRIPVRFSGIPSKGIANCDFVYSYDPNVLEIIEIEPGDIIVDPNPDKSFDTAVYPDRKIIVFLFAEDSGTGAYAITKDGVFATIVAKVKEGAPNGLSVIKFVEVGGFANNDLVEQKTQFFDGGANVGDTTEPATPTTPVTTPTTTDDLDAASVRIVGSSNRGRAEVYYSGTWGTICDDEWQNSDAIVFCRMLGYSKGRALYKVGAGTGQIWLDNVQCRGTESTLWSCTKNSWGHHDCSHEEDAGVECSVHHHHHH")
"MET"
>>> category("EEA (Euonymus europaeus) (protein) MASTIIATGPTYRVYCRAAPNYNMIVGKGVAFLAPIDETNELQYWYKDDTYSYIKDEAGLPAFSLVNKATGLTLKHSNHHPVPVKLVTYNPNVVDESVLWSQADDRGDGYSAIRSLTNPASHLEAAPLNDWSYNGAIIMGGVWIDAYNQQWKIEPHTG")
"MET"
>>> category("EULS2 M1 (Oryza sativa) (protein) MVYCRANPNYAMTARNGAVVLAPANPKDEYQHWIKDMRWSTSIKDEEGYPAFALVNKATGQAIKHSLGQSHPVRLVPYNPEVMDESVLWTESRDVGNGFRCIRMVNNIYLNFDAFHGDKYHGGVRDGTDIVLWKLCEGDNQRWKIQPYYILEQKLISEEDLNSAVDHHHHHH")
"MET"
>>> category("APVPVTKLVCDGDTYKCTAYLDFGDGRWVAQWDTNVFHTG [PhoSpL (Pholiota squarrosa)]")
"MET"
>>> category("ArathEULS3 TAP (Arabidopsis thaliana) (protein) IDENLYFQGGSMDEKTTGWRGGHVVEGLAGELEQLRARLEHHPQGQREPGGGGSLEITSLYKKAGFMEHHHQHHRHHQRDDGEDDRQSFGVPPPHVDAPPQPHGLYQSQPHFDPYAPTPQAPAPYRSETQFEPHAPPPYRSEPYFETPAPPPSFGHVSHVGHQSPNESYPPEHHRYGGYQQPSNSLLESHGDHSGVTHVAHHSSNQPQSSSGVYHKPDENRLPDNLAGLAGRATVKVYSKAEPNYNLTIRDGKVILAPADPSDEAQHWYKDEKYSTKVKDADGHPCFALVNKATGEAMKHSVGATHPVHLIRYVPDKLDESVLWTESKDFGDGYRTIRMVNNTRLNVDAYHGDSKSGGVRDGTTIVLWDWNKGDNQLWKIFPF")
"NOT MET"
>>> category("HHL-2 (Homo sapiens), P07307 (protein) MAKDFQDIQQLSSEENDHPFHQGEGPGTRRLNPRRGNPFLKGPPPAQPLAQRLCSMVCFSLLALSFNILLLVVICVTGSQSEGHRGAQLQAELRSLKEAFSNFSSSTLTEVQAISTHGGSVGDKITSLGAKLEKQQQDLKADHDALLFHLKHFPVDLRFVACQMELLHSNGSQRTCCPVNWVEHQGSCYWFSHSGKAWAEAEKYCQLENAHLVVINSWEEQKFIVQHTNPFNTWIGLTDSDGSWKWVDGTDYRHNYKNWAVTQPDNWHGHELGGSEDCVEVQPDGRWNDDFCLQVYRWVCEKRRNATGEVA")
"NOT MET"
>>> category("VLRB.aGPA.23-GCN4-biotin (Petromyzon marinus) (protein) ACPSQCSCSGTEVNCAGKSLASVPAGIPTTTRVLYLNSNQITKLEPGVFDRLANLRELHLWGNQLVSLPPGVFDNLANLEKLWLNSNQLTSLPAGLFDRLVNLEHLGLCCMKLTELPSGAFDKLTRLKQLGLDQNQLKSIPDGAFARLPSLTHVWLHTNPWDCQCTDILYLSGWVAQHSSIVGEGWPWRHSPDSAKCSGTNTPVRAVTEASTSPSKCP")
"MET"
